The values you see were collected from ChEMBL document CHEMBL2401646.

Assay: Permeability of the compound at pH 7.4 by PAMPA
Assay type: ADME
Settings: read-out: permeability
Reported values of Papp for individual entries
Readout name: Papp

CC(=O)N1CCC(n2cc(-c3coc4c(O[C@H](C)c5c(Cl)ccc(F)c5Cl)c(N)ncc34)cn2)CC1; 318 ×10⁻⁶ cm/s
CC(=O)N1CC=C(c2coc3c(O[C@H](C)c4c(Cl)ccc(F)c4Cl)c(N)ncc23)CC1; 199 ×10⁻⁶ cm/s
C[C@@H](Oc1c(N)ncc2c(C3=CCN(C(N)=O)CC3)coc12)c1c(Cl)ccc(F)c1Cl; 359 ×10⁻⁶ cm/s

###

Target: Hepatocyte growth factor receptor (Homo sapiens, UniProt P08581)
Sequence (P08581 whole entry): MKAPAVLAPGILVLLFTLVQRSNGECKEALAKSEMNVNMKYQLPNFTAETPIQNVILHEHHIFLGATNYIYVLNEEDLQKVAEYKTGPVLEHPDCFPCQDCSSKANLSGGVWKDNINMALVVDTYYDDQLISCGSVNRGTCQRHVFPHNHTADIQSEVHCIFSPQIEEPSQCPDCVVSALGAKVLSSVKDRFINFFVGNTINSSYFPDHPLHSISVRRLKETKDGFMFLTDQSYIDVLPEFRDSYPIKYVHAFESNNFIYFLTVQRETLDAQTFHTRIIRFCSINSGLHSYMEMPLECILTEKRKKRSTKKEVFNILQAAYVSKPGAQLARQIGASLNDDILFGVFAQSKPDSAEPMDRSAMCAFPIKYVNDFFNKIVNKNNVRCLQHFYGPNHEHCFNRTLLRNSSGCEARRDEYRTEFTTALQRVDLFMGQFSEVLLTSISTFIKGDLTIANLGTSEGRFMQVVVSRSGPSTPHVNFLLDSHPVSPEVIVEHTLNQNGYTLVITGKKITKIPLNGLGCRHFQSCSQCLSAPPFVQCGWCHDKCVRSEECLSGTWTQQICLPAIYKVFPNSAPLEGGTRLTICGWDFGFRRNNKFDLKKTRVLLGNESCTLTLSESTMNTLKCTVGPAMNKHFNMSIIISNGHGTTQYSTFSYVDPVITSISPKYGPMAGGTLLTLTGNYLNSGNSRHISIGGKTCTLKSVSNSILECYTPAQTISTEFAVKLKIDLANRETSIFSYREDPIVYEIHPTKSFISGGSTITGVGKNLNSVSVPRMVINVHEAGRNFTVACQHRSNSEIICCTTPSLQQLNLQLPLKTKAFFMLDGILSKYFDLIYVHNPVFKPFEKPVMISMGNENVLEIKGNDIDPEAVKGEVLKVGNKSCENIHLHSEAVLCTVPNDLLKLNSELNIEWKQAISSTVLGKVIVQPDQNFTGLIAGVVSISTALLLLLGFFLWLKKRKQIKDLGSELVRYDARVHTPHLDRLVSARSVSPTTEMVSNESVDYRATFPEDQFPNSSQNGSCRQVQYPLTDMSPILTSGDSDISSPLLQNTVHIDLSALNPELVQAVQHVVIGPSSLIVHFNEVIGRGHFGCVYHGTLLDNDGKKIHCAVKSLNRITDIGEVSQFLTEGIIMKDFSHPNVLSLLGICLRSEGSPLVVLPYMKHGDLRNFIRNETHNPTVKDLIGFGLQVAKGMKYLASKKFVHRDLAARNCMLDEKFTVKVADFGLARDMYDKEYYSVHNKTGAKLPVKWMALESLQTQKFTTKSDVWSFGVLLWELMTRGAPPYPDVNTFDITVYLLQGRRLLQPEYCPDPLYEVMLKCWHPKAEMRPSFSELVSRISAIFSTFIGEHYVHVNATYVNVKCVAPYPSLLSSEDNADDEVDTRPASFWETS
Assay: Inhibition of cMET in human MKN45 cells assessed as phosphorylated MET levels after 4 hrs in presence of mouse plasma
Format: cell-based, MKN-45
pIC50: −log10 of the molar value.
Readout name: pIC50

C[C@@H](Oc1c(N)ncc2c(C3=CCN(C(N)=O)CC3)coc12)c1c(Cl)ccc(F)c1Cl; 6.22

###

Assay: Protein binding in mouse plasma by equilibrium dialysis
Format: ADME, cell-free
Details: read-out: PPB (converted)
Readout name: fraction unbound

C[C@@H](Oc1c(N)ncc2c(C3=CCN(C(N)=O)CC3)coc12)c1c(Cl)ccc(F)c1Cl; 0.018

###

Test: Clearance in CD1 mouse at 2 mg/kg, iv
Format: ADME, organism-based
Design: dose 2 mg/kg, route intravenous
Conditions: in vivo
Form field: clearance (one value per entry).
Readout name: clearance (mL/min/kg)

C[C@@H](Oc1c(N)ncc2c(C3=CCN(C(N)=O)CC3)coc12)c1c(Cl)ccc(F)c1Cl; 51
C[C@@H](Oc1c(N)ncc2c(-c3cnn(C4CCNCC4)c3)coc12)c1c(Cl)ccc(F)c1Cl; 227

###

Biological target: Aurora kinase B (Homo sapiens, UniProt Q96GD4)
Sequence (Q96GD4 whole entry): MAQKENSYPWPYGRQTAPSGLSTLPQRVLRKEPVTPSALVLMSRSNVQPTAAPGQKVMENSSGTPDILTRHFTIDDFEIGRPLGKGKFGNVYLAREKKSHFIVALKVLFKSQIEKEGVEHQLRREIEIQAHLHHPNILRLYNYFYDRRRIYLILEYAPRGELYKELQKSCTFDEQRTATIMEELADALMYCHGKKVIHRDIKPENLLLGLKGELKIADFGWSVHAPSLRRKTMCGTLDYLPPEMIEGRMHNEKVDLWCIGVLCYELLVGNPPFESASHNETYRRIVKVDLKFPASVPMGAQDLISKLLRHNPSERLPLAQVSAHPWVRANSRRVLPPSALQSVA
Test: Inhibition of aurora-B (unknown origin) autophosphorylation
Readout name: IC50 (nM)

C[C@@H](Oc1c(N)ncc2c(C3=CCN(C(N)=O)CC3)coc12)c1c(Cl)ccc(F)c1Cl; 11

###

Experiment: Clearance in Sprague-Dawley rat at 2 mg/kg, iv
Type: ADME, organism-based
Parameters: dose 2 mg/kg, route intravenous
Conditions: in vivo
Readout name: clearance (mL/min/kg)

C[C@@H](Oc1c(N)ncc2c(C3=CCN(C(N)=O)CC3)coc12)c1c(Cl)ccc(F)c1Cl; 39

###

Experiment: Metabolic stability in human liver microsomes assessed as extraction ratio up to 40 mins by LC-MS/MS analysis
Format: ADME, Microsome
Settings: read-out: ERH
Readout name: hepatic extraction ratio at 40 min

C[C@@H](Oc1c(N)ncc2c(C3=CCN(C(N)=O)CC3)coc12)c1c(Cl)ccc(F)c1Cl; 0.7

###

Assay: AUC (0 to last) in CD1 mouse at 20 mg/kg, po
Type: ADME, organism-based
Design: dose 20 mg/kg, route oral, time 0 - last
Conditions: plasma
Measured AUC(0-t), listed per entry.
Readout name: AUC(0-t) (ng·h/mL)

CS(=O)(=O)O.C[C@@H](Oc1c(N)ncc2c(C3=CCN(C(N)=O)CC3)coc12)c1c(Cl)ccc(F)c1Cl; 5420
C[C@@H](Oc1c(N)ncc2c(-c3cnn(C4CCNCC4)c3)coc12)c1c(Cl)ccc(F)c1Cl.Cl.Cl.Cl.Cl; 509

###

Experiment: Protein binding in human plasma by equilibrium dialysis
Format: ADME, cell-free
Conditions: read-out: PPB (converted)
Readout name: fraction unbound

C[C@@H](Oc1c(N)ncc2c(C3=CCN(C(N)=O)CC3)coc12)c1c(Cl)ccc(F)c1Cl; 0.019
